Test system: UACC-62
TEST_NAME: Growth inhibition of human UACC62 cells assessed as cell growth at 10 uM by sulforhodamine B assay
Type: functional
COND: read-out: Activity
Here, each record is paired with measured growth at 10 µM data.

Consider the following illustrative entries.
// lookup growth at 10 µM for `COc1cc(/C=C2\C[C@]3(C)[C@H]4CC=C5[C@@H]6CC(C)(C)C[C@@H](O)[C@]6(C(=O)O)CC[C@@]5(C)[C@]4(C)CC[C@H]3C(C)(C)C2=O)ccc1O`
75%

// lookup growth at 10 µM for `CC(C)=CC(=O)O[C@@H]1CC(C)(C)C[C@H]2C3=CC[C@@H]4[C@@]5(C)CCC(=O)C(C)(C)[C@@H]5CC[C@@]4(C)[C@]3(C)CC[C@@]12C(=O)O`
57.8%

// lookup growth at 10 µM for `CC(C)=CC(=O)O[C@@H]1CC(C)(C)C[C@H]2C3=CC[C@@H]4[C@@]5(C)CC[C@H](O)C(C)(C)[C@@H]5CC[C@@]4(C)[C@]3(C)CC[C@@]12C(=O)O`
67.2%

Continuing:
// lookup growth at 10 µM for `CC1(C)C[C@@H](O)[C@]2(C(=O)O)CC[C@]3(C)C(=CC[C@@H]4[C@@]5(C)C/C(=C\C=C\c6ccccc6)C(=O)C(C)(C)[C@@H]5CC[C@]43C)[C@@H]2C1`
50.4%

// lookup growth at 10 µM for `CC1(C)C[C@@H](O)[C@]2(C(=O)O)CC[C@]3(C)C(=CC[C@@H]4[C@@]5(C)CCC(=O)C(C)(C)[C@@H]5CC[C@]43C)[C@@H]2C1`
80.5%
